Cited source for all entries: ChEMBL document CHEMBL5360611

Below, each entry is listed alongside its reported IC50.
Target: 4'-phosphopantetheinyl transferase PptT (Mycobacterium tuberculosis, UniProt O33336)
Sequence (O33336 whole entry): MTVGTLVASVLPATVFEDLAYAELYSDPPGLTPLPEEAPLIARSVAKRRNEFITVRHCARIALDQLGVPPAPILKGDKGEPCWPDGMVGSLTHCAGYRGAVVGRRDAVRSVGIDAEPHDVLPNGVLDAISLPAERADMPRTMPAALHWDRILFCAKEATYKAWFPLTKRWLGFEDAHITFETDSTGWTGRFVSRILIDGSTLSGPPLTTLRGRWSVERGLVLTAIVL
Test: Inhibition of Mycobacterium tuberculosis H37Rv PptT by fluorescence polarization assay

{"columns": ["SMILES", "EXPERIMENTAL SYSTEM", "UNITS TEXT", "VALUE OPERATOR", "IC50"],
 "data": [
  ["CCNc1cccc(Nc2c(CC)cc(S(=O)(=O)NCC)cc2CC)n1", "4'-phosphopantetheinyl transferase PptT (Mycobacterium tuberculosis, UniProt O33336)", "µM", "=", 1],
  ["CCNc1ccc(C(F)(F)F)c(Nc2c(CC)cccc2CC)n1", "4'-phosphopantetheinyl transferase PptT (Mycobacterium tuberculosis, UniProt O33336)", "µM", ">", 100],
  ["CCNc1cccc(Nc2c(CC(F)(F)F)cccc2CC(F)(F)F)n1", "4'-phosphopantetheinyl transferase PptT (Mycobacterium tuberculosis, UniProt O33336)", "µM", "=", 1.3],
  ["CCc1cccc(CC)c1Nc1cccc(NC(C)C)n1", "4'-phosphopantetheinyl transferase PptT (Mycobacterium tuberculosis, UniProt O33336)", "µM", ">", 100]
]}

====

Assay: Lipophilicity, logD of compound at pH 7.4
Format: physicochemical
Conditions: buffer

{"columns": ["SMILES", "logD"],
 "data": [
  ["C=C(NCC)NC(=O)Nc1c(CC)cccc1CC", 1.09]
]}

====

Target: Voltage-dependent L-type calcium channel subunit alpha-1C (Homo sapiens)
Sequence (Q13936 whole entry): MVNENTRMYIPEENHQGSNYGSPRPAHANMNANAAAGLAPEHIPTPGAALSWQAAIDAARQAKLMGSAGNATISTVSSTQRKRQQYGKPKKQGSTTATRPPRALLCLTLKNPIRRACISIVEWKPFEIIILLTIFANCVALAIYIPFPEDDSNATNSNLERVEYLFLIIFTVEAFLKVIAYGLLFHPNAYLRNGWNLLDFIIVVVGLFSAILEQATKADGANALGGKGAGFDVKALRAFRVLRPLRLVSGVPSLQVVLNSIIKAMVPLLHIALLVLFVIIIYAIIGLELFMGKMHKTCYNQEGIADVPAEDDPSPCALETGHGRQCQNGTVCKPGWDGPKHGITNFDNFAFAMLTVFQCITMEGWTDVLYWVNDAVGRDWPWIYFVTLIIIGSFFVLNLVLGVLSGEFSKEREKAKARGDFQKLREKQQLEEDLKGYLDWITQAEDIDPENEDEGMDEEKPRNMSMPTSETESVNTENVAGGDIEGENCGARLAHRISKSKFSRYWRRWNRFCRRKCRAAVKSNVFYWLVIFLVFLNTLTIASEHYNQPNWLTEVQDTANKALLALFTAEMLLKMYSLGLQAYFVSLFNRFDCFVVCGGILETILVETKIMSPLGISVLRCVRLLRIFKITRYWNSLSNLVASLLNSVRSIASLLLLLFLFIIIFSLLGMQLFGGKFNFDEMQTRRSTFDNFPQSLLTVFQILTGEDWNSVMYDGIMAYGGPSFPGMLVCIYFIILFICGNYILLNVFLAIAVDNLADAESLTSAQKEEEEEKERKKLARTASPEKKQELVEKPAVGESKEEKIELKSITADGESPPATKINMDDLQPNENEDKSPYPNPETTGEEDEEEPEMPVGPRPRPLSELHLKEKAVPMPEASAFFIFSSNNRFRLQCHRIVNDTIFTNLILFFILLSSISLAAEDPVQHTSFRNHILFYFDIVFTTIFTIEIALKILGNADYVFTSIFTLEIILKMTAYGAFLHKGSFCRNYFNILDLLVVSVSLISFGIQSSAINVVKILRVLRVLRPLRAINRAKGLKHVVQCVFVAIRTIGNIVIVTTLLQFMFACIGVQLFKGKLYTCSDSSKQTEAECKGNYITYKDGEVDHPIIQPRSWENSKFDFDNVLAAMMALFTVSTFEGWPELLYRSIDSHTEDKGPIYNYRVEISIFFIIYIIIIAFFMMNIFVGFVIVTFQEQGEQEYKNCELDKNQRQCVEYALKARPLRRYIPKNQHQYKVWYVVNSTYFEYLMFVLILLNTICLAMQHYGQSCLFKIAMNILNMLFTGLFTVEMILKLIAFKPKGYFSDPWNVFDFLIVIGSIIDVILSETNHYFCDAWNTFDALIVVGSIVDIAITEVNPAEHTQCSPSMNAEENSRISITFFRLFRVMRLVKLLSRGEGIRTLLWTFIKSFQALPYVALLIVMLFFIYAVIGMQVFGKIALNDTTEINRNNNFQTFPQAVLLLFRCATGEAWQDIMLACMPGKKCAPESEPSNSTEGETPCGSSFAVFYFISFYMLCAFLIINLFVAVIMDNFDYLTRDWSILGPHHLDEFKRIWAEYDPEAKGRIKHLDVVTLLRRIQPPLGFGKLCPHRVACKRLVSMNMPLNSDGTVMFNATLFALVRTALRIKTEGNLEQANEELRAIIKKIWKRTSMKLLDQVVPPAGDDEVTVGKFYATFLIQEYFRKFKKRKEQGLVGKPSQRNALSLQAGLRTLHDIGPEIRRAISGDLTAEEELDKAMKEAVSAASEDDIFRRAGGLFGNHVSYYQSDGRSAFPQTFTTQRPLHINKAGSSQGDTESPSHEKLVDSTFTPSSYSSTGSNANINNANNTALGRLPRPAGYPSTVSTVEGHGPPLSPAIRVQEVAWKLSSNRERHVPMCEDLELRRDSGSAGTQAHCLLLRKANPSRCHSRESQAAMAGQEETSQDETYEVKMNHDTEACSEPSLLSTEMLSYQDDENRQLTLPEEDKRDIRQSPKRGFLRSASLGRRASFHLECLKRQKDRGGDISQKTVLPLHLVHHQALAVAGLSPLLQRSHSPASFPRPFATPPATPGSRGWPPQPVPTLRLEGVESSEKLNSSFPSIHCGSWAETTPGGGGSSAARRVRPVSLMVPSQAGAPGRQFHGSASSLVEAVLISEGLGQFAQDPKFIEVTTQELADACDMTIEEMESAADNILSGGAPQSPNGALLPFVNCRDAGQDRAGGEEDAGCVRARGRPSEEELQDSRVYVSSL
Experiment: Inhibition of human Cav1.2 cardiac ion channel transfected in HEK cells by automatic patch clamp analysis
pIC50: −log10 of the molar value.

{"columns": ["SMILES", "VALUE OPERATOR", "pIC50"],
 "data": [
  ["C=C(NCC)NC(=O)Nc1c(CC)cccc1CC", "=", 5.08],
  ["CCc1cccc(CC)c1Nc1cccc(NC)n1", ">", 5.52],
  ["CCNc1cc(OC)cc(Nc2c(CC)cccc2CC)n1", "=", 5.47],
  ["CCNc1ccc(C(F)(F)F)c(Nc2c(CC)cccc2CC)n1", "=", 4.82],
  ["CCNC1=N/C(=N/c2c(Cl)cccc2Cl)CN1", "<", 4.52],
  ["CCNc1cccc(Nc2c(CC)cccc2CC)n1", "=", 5.09]
]}

====

Biological target: Voltage-gated inwardly rectifying potassium channel KCNH2 (Homo sapiens)
Sequence (Q12809 whole entry): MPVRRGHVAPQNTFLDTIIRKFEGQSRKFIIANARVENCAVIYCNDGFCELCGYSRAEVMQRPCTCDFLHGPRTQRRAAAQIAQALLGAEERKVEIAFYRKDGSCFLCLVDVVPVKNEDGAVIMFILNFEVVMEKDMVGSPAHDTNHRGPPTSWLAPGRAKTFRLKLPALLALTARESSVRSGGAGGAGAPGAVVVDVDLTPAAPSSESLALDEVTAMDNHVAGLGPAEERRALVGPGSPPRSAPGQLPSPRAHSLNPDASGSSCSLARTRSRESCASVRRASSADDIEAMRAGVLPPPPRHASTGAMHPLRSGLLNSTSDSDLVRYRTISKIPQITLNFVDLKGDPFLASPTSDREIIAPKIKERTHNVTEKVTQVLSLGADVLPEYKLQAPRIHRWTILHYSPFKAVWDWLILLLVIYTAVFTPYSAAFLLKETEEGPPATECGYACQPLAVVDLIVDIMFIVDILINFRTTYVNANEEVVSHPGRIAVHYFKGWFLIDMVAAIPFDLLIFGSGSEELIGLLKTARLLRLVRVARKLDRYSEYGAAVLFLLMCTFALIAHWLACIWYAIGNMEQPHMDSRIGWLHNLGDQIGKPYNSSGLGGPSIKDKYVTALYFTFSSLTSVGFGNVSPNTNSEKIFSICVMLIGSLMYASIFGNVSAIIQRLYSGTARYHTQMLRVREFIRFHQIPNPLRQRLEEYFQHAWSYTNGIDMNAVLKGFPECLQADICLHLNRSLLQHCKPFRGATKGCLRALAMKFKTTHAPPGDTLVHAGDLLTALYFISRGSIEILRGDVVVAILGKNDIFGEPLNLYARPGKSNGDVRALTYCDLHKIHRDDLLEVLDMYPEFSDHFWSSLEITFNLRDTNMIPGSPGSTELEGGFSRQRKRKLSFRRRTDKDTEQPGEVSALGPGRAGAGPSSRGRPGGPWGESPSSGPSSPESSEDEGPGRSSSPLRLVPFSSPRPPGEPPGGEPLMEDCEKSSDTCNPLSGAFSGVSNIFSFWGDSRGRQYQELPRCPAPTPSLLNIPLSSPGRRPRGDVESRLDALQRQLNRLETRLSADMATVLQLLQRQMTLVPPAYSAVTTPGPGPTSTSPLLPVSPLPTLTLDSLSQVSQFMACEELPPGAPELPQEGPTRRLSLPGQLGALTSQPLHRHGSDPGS
Assay: Inhibition of hERG transfected in HEK cells by automatic patch clamp analysis
pIC50: −log10 of the molar value.
READOUT KIND: pIC50

{"columns": ["SMILES", "VALUE OPERATOR", "MEASURED NUMBER"],
 "data": [
  ["C=C(NCC)NC(=O)Nc1c(CC)cccc1CC", "<", 4.52],
  ["CCc1cccc(CC)c1Nc1cccc(NC)n1", "=", 5.12],
  ["CCNc1ccc(C(F)(F)F)c(Nc2c(CC)cccc2CC)n1", "<", 4.52],
  ["CCNC1=N/C(=N/c2c(Cl)cccc2Cl)CN1", "<", 4.52],
  ["CCNc1cc(OC)cc(Nc2c(CC)cccc2CC)n1", "=", 5.24],
  ["CCNc1cccc(Nc2c(CC)cccc2CC)n1", "=", 4.96]
]}

====

Molecular target: UniProt:O33336
Test: Inhibition of Mycobacterium tuberculosis H37Rv PptT by fluorescence polarization assay
pIC50: −log10 of the molar value.
READOUT KIND: pIC50

{"columns": ["SMILES", "READOUT KIND", "VALUE OPERATOR", "MEASURED NUMBER"],
 "data": [
  ["CCNc1nc(Nc2c(CC)cccc2CC)ccc1OC", "pIC50", "<", 4.00],
  ["CCNc1cccc(Nc2c(CC)cc(C(=O)NC)cc2CC)n1", "pIC50", "=", 5.48],
  ["CCNc1cccc(Nc2c(CC)cccc2CC)n1", "pIC50", "=", 6.15],
  ["CCc1cccc(CC)c1Nc1cccc(NC(C)=O)n1", "pIC50", "<", 4.00],
  ["CCc1cccc(CC)c1Nc1cccc(NCC(C)C)n1", "pIC50", "<", 4.00],
  ["CCNc1cc(OC)cc(Nc2c(CC)cccc2CC)n1", "pIC50", "=", 5.30],
  ["CCNc1cccc(Nc2c(C(C)C)cccc2C(C)C)n1", "pIC50", "<", 4.00]
]}
